# targetEntity: formaldehyde dehydrogenase (FDH) (Pseudomonas putida)
# Construct: purchased Sigma-Aldrich
# Sequence (P46154 whole entry): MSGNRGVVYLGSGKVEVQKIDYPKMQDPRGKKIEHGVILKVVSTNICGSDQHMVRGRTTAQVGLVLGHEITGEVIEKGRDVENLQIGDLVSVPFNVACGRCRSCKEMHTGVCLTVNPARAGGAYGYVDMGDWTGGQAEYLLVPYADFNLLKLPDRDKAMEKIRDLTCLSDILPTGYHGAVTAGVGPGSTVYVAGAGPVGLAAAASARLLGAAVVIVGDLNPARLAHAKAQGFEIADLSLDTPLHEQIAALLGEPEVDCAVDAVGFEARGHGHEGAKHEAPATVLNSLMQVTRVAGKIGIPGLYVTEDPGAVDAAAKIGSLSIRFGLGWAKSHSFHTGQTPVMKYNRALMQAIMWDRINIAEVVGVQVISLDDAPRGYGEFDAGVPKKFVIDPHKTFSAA
# assayProcedure: FDH coupling enzyme counterscreen
# Assay type: biochemical
# testConditions: Table S1; FDH counterscreen; unit not in table, from Figure 2; read-out: qHTS Data: jmjd2e fdh IC50
measurementType: IC50 (µM)
Numeric answer only, unit µM assumed.

O=C(CC1Sc2ncnn2C1=O)Nc1ccc(Cl)cc1 (stereo not drawn) [compound 24795544] | 0.25
Oc1ccc(NCc2ccccc2OCc2ccccc2F)cc1 [compound 17385881] | 14.1
CCCCn1c(=O)[nH]c2nc3cc(NC(C)=O)ccc3nc2c1=O [compound 26671554] | 11.2
O=C(CCc1ccccc1)NCC(=O)N/N=C/c1ccc(O)cc1O [compound 26660953] | 17.8
CN(C)c1cc(N/N=C/c2ccc(Cl)cc2)nc(N(C)C)n1 [compound 24813304] | 14.1
O=C(O)C(=O)O.O=C(c1ccccc1)N1CCN(CC2CC=CCC2)CC1 (stereo not drawn) [compound 844960] | 5.01
O=C1C=CC2=C3c4cc(O)c(O)cc4CC3(O)COC2=C1O (stereo not drawn) [compound 26749676] | 11.2
Cc1cc(N(C)/N=C/c2ccccc2)nc(-c2ccccc2O)n1 [compound 24801833] | 39.8

Now, please, on to the next compound.
Query Fc1ccc(/C=C2\CCCC3=C2Nc2ncnn2C3c2ccc(F)cc2)cc1 (stereo not drawn) [compound 14745056] yields IC50 of 10

====

Overview of reported IC50 across a group of compounds:
# targetEntity: JMJD2E (Homo sapiens, UniProt B2RXH2)
# Sequence (B2RXH2 1-337): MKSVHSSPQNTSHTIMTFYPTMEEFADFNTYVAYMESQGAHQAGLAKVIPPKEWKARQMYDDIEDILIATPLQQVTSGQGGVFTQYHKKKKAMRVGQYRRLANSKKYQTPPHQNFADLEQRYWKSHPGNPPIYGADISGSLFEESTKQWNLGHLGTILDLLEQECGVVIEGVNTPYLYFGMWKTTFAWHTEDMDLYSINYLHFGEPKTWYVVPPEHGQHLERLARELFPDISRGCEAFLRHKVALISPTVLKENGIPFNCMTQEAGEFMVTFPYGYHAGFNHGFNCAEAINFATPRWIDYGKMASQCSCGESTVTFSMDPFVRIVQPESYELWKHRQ
# assayProcedure: MALDI-TOF MS demethylation assay, JMJD2E
# testConditions: read-out: MALDI-TOF Data: IC50; Table S1; 2 µM JMJD2E; unit not in table; ~ values are poorly fitted
Numeric answer only, unit µM assumed.

Br.Oc1ccc(C2CNCCc3c2cc(O)c(O)c3Cl)cc1 (centres unmarked) [compound 50106351] | 8.4
COc1cccc(/C=N/NC(=O)CNC(=O)CCc2ccccc2)c1O [compound 26660959] | 8.6

Now, please, on to the next compound.
Fill in: JMJD2E (Homo sapiens, UniProt B2RXH2) IC50 for O=c1c2ccccc2sn1-c1nccs1 [compound 24830882] = 10.2

====

# targetEntity: JMJD2E (Homo sapiens, UniProt B2RXH2)
# Sequence (B2RXH2 1-337): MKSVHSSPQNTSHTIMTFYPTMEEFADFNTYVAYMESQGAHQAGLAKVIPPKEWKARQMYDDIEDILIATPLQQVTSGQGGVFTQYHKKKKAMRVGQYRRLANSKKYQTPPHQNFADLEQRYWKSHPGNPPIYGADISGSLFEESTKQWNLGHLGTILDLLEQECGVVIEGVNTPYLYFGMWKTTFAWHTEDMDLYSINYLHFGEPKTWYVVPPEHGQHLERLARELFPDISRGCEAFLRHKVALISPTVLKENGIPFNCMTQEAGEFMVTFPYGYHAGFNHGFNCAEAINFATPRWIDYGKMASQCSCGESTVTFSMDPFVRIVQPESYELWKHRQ
# assayProcedure: JMJD2E FDH-coupled assay under low and high iron conditions (iron chelation profile)
# Assay type: biochemical
# Design: The catalytic domain of human JMJD2E (residues 1–337); His6 (N); made in house; host or cells: E. coli
# testConditions: Table S1; high iron, head says 20 µM FAS; unit not in table, from Figure 2; read-out: qHTS Data: jmjd2e fas20um IC50
measurementType: pIC50
Quick note: pIC50 means taking -log10 of the concentration in moles per liter.

Some solved entries appear below for comparison.
CCN(CC)c1ccc(N=Cc2c(C)[nH]c3ccccc23)cc1 | 5.10
CC1=CC(=O)c2c(O)cccc2C1=O | 4.90
CN(C)C1C(=O)C(C(N)=O)=C(O)[C@@]2(O)C(=O)C3=C(O)c4c(O)cccc4[C@@](C)(O)C3[C@H](O)C12 (stereo partly drawn) | 5.05
Br.Oc1ccc(C2CNCCc3c2cc(O)c(O)c3Cl)cc1 (stereo not drawn) | 5.10
Cl.Nc1ccn([C@@H]2O[C@H](CO)[C@@H](O)[C@@H]2O)c(=O)n1 | 5.10

Query CN1CCN(Cc2cc(COCc3ccccc3)c3cccnc3c2O)CC1 yields pIC50 of 5.05

Query CCOC(=O)c1ccc(CC(=O)c2ccc(O)c(O)c2O)o1 yields pIC50 of 5.00

Query Oc1ccc(NCc2ccccc2OCc2ccccc2F)cc1 yields pIC50 of 5.05

Query COc1ccc(/C=C/C(=O)NC(=S)NNC(=O)c2cnccn2)cc1 yields pIC50 of 5.05

====

# targetEntity: JMJD2E (Homo sapiens, UniProt B2RXH2)
# Sequence (B2RXH2 1-337): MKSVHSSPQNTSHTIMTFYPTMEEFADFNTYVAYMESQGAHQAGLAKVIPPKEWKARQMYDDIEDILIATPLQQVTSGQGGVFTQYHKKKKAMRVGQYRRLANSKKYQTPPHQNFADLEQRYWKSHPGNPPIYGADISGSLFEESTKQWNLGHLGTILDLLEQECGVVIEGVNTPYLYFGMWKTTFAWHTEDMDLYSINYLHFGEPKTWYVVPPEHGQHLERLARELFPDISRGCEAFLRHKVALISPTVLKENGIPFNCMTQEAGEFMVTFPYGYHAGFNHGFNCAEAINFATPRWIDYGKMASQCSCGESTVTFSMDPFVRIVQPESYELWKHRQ
# assayProcedure: MALDI-TOF MS demethylation assay, JMJD2E
# testConditions: Table S1; span of the fitted curve, 2 µM JMJD2E
Overview of reported MALDI-TOF Data: Span across a group of compounds:

CCCCc1ccc(C(=O)O)nc1 | ~ 5848

Fill in: JMJD2E (Homo sapiens, UniProt B2RXH2) MALDI-TOF Data: Span for CCOc1c(Cl)cc(CNc2ccc(N3CCCC3)cc2)cc1OC = ~ 11904

Fill in: JMJD2E (Homo sapiens, UniProt B2RXH2) MALDI-TOF Data: Span for CCOc1cc(CNc2ccc(N3CCCCC3)cc2)cc(Br)c1OCC(=O)NC(C)(C)C = ~ 104.5

====

# targetEntity: JMJD2E (Homo sapiens)
# assayProcedure: JMJD2E FDH-coupled assay under low and high iron conditions (iron chelation profile)
# Assay type: biochemical
# Set-up: The catalytic domain of human JMJD2E (residues 1–337); His6 (N); made in house; host or cells: E. coli
# testConditions: Table S1; high iron, head says 20 µM FAS; unit not in table, from Figure 2; read-out: qHTS Data: jmjd2e fas20um IC50
Decide using IC50 alone. Strictly below 10 µM: true (1). Equal to or above 10 µM: false (0).

Say whether its IC50 is strictly beneath 10 µM. Entry: CC(C)C1C(=O)C(C(N)=O)=C(O)[C@@]2(O)C(=O)C3=C(O)c4c(O)ccc(N(C)C)c4C[C@H]3C[C@@H]12.Cl (stereo partly shown)
false (0)

Say whether its IC50 is strictly beneath 10 µM. Entry: O=C(O)c1cccnc1C(=O)O
false (0)

Say whether its IC50 is strictly beneath 10 µM. Entry: O=C(CC1Sc2ncnn2C1=O)Nc1ccc(Cl)cc1 (stereo not shown)
true (1)

Say whether its IC50 is strictly beneath 10 µM. Entry: O=c1cc(-c2ccccc2)oc2cc(O)c(O)c(O)c12
true (1)

Say whether its IC50 is strictly beneath 10 µM. Entry: Cc1cc(C(=O)NNC(=S)Nc2ccccc2)nn1C
true (1)

====

Overview of reported pIC50 across a group of compounds:
# targetEntity: JMJD2E (Homo sapiens, UniProt B2RXH2)
# assayProcedure: JMJD2E FDH-coupled assay under low and high iron conditions (iron chelation profile)
# Type: biochemical
# Design: The catalytic domain of human JMJD2E (residues 1–337); His6 (N); made in house; host or cells: E. coli
# testConditions: Table S1; low iron 2.5 µM FAS; unit not in table, from Figure 2; read-out: qHTS Data: jmjd2e fas2.5um IC50
Quick note: pIC50 means taking -log10 of the concentration in moles per liter.

O=C(O)c1cc(O)c(O)c(O)c1 | 6.89

Query Br.Oc1ccc(C2CNCCc3c2cc(O)c(O)c3Cl)cc1 (stereo not shown) yields pIC50 of 5.20

Query C/C(=N\Nc1ccc2nncn2n1)c1ccccn1 yields pIC50 of 5.05

Query COc1ccccc1NC(=S)NNC(=O)c1nn(C)c(C)c1Br yields pIC50 of 5.40

Cited source for all entries: paper PMC2990756
